Test: Microsomal metabolic stability screen, pooled human intestinal microsomes (HIM)
Type: in vitro ADME
Details: 10 µM prodrug, 0.02 mg/mL HIM, NADPH regenerating system, 37 °C, 60 min, n = 2; LOD 0.1 ng/mL
Endpoint Name: Primary product detected in media HIM

> print(dat)
                                   compound  experimental.result
1  CC(=O)O/C(=C(/C)N(C(C)=O)C(C)(C)C)c1cccc(Cl)c1 [Compound 8, (E/Z)-N,O-diacetylated bupropion]                 <LOD

====

Biological target: Muscarinic non -selective, central
Assay: Pharmacological screen, muscarinic receptor binding
Details: Cheng and Prusoff
Counter-ions that a name gives are not always drawn.
Each entry below carries its reported Ki.
Endpoint Name: Ki (µM)

> print(dat)
                                   compound  reading.unit  experimental.result
1  CC(NC(C)(C)C)C(=O)c1cccc(Cl)c1 (racemic) [Bupropion, Rac-bupropion hydrochloride, reference compound]            µM                   27
2  CC(C(=O)c1cccc(Cl)c1)N(C)C(C)(C)C (racemic)            µM                 12.3
